Cited source: paper PMC3681809

- targetEntity: UniProt:Q92800
- Sequence (Q92800 whole entry): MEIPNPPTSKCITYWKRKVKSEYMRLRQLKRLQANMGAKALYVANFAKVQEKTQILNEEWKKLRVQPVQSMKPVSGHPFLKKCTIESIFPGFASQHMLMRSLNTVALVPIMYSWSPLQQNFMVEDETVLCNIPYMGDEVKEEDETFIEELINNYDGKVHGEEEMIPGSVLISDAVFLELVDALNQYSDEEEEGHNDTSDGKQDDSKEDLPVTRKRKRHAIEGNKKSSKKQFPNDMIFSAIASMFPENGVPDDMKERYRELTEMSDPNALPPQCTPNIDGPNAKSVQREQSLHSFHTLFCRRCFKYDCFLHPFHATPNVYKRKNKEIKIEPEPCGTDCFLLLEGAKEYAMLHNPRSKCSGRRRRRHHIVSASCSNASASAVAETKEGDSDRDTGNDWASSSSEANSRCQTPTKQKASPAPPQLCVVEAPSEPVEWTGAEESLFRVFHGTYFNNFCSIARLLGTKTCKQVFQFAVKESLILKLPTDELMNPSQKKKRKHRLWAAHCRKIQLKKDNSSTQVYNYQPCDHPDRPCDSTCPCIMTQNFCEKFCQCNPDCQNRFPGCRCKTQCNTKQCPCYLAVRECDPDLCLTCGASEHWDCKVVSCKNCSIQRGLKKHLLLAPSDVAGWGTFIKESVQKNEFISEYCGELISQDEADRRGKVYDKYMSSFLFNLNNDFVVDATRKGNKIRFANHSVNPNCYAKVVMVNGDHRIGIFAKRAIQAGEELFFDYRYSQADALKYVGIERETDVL
- Sequence (O75530 2-441 partner): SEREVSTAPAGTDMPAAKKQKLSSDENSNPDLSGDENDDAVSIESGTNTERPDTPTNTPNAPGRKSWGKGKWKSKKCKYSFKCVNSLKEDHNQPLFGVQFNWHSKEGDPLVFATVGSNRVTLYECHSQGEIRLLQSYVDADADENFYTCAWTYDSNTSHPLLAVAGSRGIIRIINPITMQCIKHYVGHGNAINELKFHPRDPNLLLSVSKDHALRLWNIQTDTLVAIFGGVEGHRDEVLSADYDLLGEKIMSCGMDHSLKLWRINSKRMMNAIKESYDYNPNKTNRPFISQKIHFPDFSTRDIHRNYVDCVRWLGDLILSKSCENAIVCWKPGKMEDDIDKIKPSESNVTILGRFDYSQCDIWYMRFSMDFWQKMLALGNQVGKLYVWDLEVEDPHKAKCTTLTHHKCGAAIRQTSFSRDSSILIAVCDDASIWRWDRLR
- Sequence (Q15022 whole entry partner): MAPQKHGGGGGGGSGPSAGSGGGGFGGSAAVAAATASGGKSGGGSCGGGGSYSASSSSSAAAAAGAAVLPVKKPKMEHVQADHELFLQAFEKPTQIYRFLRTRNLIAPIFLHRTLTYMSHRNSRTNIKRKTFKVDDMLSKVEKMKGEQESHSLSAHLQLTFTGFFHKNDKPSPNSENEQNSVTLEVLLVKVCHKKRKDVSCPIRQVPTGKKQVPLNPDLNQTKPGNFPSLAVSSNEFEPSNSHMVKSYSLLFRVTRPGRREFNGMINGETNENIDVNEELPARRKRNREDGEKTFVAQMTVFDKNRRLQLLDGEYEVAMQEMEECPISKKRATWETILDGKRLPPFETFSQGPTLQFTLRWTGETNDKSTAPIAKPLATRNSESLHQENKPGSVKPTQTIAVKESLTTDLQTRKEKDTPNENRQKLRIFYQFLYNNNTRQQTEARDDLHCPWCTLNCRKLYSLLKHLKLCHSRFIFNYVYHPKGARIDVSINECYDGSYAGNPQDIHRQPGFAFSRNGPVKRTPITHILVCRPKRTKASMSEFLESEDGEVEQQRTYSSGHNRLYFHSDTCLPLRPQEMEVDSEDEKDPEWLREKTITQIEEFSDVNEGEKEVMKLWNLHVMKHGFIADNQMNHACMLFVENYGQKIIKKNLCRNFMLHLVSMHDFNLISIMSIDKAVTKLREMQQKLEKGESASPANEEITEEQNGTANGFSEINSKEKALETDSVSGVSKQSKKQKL
assayReadout: Ki

Prompt: Please state recorded Ki (tested on UniProt:Q92800) of `Cc1cc(C)c(CNC(=O)c2cc(-c3ccc(N4CCN(C)CC4)nc3)cc3c2c(C)cn3C(C)C)c(=O)[nH]1`
Response: 636 nM
